The measured values listed here are drawn from ChEMBL document CHEMBL1255530.

molecular target: Metabotropic glutamate receptor 5 (Rattus norvegicus, UniProt P31424); test: Positive allosteric modulation of rat mGluR5 expressed in HEK293 cells
Sequence (P31424 whole entry): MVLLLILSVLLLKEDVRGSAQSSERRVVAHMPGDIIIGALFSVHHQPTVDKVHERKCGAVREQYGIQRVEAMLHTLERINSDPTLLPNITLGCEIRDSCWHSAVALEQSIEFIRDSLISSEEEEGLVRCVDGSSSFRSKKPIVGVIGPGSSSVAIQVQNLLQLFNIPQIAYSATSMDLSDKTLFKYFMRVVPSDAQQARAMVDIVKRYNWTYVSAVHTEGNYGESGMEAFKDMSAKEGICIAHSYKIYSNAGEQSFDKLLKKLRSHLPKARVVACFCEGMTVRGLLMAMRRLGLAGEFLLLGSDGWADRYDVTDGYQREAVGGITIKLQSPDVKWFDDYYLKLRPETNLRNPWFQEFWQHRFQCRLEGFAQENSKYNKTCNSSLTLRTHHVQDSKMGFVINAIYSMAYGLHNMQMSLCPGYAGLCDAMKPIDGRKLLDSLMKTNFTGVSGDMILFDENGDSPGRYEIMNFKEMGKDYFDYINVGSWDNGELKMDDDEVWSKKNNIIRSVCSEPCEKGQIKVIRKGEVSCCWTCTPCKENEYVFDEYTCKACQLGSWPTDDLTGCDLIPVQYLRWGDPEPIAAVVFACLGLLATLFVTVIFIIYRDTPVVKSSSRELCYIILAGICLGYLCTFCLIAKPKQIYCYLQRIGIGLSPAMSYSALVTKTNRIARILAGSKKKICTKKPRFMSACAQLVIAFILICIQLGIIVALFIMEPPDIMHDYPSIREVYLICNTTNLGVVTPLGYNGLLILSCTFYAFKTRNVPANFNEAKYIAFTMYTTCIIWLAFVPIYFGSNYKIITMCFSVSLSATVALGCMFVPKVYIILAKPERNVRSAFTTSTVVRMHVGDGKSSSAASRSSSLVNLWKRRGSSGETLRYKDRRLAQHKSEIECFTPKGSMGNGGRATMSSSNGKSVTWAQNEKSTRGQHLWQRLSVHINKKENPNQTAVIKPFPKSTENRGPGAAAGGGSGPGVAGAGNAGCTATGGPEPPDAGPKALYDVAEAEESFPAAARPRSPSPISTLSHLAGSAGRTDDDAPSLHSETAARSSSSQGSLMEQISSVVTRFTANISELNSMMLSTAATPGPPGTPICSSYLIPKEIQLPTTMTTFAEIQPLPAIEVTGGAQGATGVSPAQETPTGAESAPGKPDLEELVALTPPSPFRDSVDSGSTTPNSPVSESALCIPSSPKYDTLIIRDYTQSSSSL
property-name: log10 EC50 (log10 of the value in nM)

>>> print(df.to_string())
                                 smiles_data  observed_result
 0  CSc1nnc2c(n1)O[C@@H](c1cccc(F)c1)N(C(C)=O)c1ccccc1-2             3.10
 1  C=CCOc1ccc([C@@H]2Oc3nc(SCC=C)nnc3-c3ccccc3N2C(C)=O)cc1             3.08
 2  CSc1nnc2c(n1)O[C@@H](c1ccc(Br)cc1)N(C(C)=O)c1ccccc1-2             3.18
 3  CSc1nnc2c(n1)O[C@@H](c1ccc(OC(C)=O)c(Br)c1)N(C(C)=O)c1ccccc1-2             3.58
 4  CCOc1cc([C@@H]2Oc3nc(SC)nnc3-c3ccccc3N2C(=O)CC)ccc1OC(=O)CC             3.45
 5  CCSc1nnc2c(n1)O[C@@H](c1ccc(SC)cc1)N(C(=O)CC)c1ccccc1-2             3.09
 6  CCCCSc1nnc2c(n1)O[C@@H](c1cccc(F)c1)N(C(C)=O)c1ccccc1-2             2.71
 7  CCCC(=O)N1c2ccccc2-c2nnc(SC)nc2O[C@H]1c1ccc(OC)cc1OC             3.32
 8  CCSc1nnc2c(n1)O[C@@H](/C=C/c1ccco1)N(C(C)=O)c1ccccc1-2             3.07
 9  CCSc1nnc2c(n1)O[C@@H](c1ccc(C)s1)N(C(C)=O)c1ccccc1-2             3.08
10  CCC(=O)Oc1ccc([C@@H]2Oc3nc(SC)nnc3-c3ccccc3N2C(=O)CC)cc1             3.56
11  COc1ccc(OC)c([C@@H]2Oc3nc(SC)nnc3-c3ccccc3N2C(C)=O)c1             2.95
12  CCSc1nnc2c(n1)O[C@H](c1ccccc1C)N(C(C)=O)c1ccccc1-2             3.31
13  CSc1nnc2c(n1)O[C@@H](c1cccc(Oc3ccccc3)c1)N(C(C)=O)c1ccccc1-2             3.47
14  CCCC(=O)N1c2ccccc2-c2nnc(SC)nc2O[C@H]1c1sccc1C             3.27
15  CCC(=O)N1c2ccccc2-c2nnc(SC)nc2O[C@H]1c1ccc(I)o1             3.15
16  C=CCSc1nnc2c(n1)O[C@@H](/C=C/c1cccs1)N(C(C)=O)c1ccccc1-2             2.36
17  CSc1nnc2c(n1)O[C@@H](c1ccccc1F)N(C(C)=O)c1ccccc1-2             3.54
18  CCCC(=O)N1c2ccccc2-c2nnc(SC)nc2O[C@H]1c1cccs1             2.94
19  CCOC(=O)COc1ccccc1[C@@H]1Oc2nc(SC)nnc2-c2ccccc2N1C(=O)CC             3.34
20  CCCCSc1nnc2c(n1)O[C@@H](c1cccn1C)N(C(C)=O)c1ccccc1-2             2.84
